Target: Isocitrate dehydrogenase [NADP] cytoplasmic (Homo sapiens, UniProt O75874, R132L)
Sequence (O75874 2-414 R132L limits assumed): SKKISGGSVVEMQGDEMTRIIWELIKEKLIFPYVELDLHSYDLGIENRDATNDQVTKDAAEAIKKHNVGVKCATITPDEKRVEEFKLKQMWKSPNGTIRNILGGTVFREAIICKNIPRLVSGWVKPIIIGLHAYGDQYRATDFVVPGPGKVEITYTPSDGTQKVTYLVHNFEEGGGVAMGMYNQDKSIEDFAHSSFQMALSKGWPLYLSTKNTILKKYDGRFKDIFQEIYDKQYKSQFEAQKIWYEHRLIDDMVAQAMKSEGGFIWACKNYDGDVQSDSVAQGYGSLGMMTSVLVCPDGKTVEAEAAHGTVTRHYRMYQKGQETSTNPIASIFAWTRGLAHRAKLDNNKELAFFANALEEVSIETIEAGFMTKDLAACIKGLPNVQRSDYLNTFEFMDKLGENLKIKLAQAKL
Experiment: Inhibition of recombinant human N-terminal GST-fused IDH1 R132L mutant expressed in Escherichia coli using alpha-ketoglutarate as substrate preincubated for 15 mins followed by substrate addition
quantity: IC50 (nM)
The figure you give is taken to be in nM; do not add the unit.

In the examples that follow, each entry is paired with its recorded IC50.
Cn1nc(C2=C(c3cn(CCCn4ccnc4)c4cc(Br)ccc34)C(=O)NC2=O)c2cccnc21 ... 192
Cc1ccc2c(C3=C(c4nn(C)c5ncccc45)C(=O)NC3=O)cn(CCCn3ccnc3)c2c1 ... 189
Cn1nc(C2=C(c3cn(CCCn4ccnc4)c4ccccc34)C(=O)NC2=O)c2cccnc21 ... 398
Cn1nc(C2=C(c3cn(CCCn4ccnc4)c4cc(Cl)ccc34)C(=O)NC2=O)c2cccnc21 ... 307
Cn1nc(C2=C(c3cn(CCCn4ccnc4)c4cc(F)ccc34)C(=O)NC2=O)c2cccnc21 ... 246

input: Return reported IC50; argument: `Cn1nc(C2=C(c3cn(CCCCn4ccnc4)c4ccccc34)C(=O)NC2=O)c2cccnc21`
output: 311

input: // query: Cc1ccccc1C(C(=O)NC1CCCCC1)N(C(=O)Cn1ccnc1C)c1cccc(F)c1 (configuration not stated)
output: 186
